- Tested on: SK-MEL-2
- EXPERIMENT DESCRIPTION: NCI tumour cell line growth inhibition, 48 h
Active and inactive are the calls of the source. No stated cut-off is given here; in the data, active = GI50 up to about 1.1 µM and inactive = higher.
The following compounds are listed with their measured GI50 values.

> print(dat)
                                   compound  measured.quantity              result
1  O=P(Nc1cccc(Cl)c1)(Oc1ccccc1)N(CCCl)CCCl (stereo not drawn)               GI50  12.6 µM (inactive)

// next item, GI50 requested
Q) So what's the measured GI50 for this one? CCNc1nc2ccccc2nc1NCC
A) > 100 µM (inactive)

###

- Tested on: OVCAR-3
- EXPERIMENT DESCRIPTION: NCI tumour cell line growth inhibition, 48 h
Active and inactive are the calls of the source. Cut-off read from the data, not from the text of the source: active = GI50 up to about 1.1 µM and inactive = higher.
MEASURED QUANTITY: GI50

COMPOUND	GI50
COc1cc([C@@H]2c3cc4c(cc3[C@@H](/N=C/c3ccc(C(=O)O[C@H]5C[C@H]6OC[C@@]6(OC(C)=O)[C@H]6[C@H](OC(=O)c7ccccc7)[C@]7(O)C[C@H](OC(=O)[C@H](OC(=O)c8ccc(/C=N/[C@@H]9c%10cc%11c(cc%10[C@@H](c%10cc(OC)c(O)c(OC)c%10)[C@H]%10C(=O)OC[C@@H]%109)OCO%11)cc8)[C@@H](NC(=O)c8ccccc8)c8ccccc8)C(C)=C([C@@H](OC(C)=O)C(=O)[C@]56C)C7(C)C)cc3)C3COC(=O)C32)OCO4)cc(C)c1O (stereo partly specified)	6.85 µM (inactive)
O=C1CCCC(O)=C1SC1=C(O)CCCC1=O	> 100 µM (inactive)
CC(C(=O)O)c1ccc(-n2nnc3c(=O)[nH][nH]c(=O)c32)cc1 (stereo unspecified)	> 100 µM (inactive)
O=c1[nH]nc(-c2ccccc2)n1/N=C/c1c(O)ccc2ccccc12	17.3 µM (inactive)
NC(Cc1cccnn1)C(=O)O (stereo unspecified)	> 100 µM (inactive)
CCOC(=O)NNC(=O)NCCCCNC(=O)NNC(=O)OCC	> 100 µM (inactive)

Q) So what's the measured GI50 for this one? N#Cc1nc(C(CO)N(Cc2ccccc2)C(=O)O)oc1N (stereo unspecified)
A) > 100 µM (inactive)

Q) So what's the measured GI50 for this one? O=S(=O)(N/C(=N\O)Nc1ccc(Cl)cc1)c1cc(S(=O)(=O)c2ccccc2)cs1
A) 13.5 µM (inactive)

Q) So what's the measured GI50 for this one? COc1cccc(CCn2c(N)c(-c3ccccc3)c3ccc([N+](=O)[O-])cc3c2=O)c1
A) 2.58 µM (inactive)

Q) So what's the measured GI50 for this one? Cc1ccc(C(=O)c2[nH]c(Nc3cc(C)ccn3)c(C(=S)Nc3ccccc3)c2N)cc1
A) > 100 µM (inactive)

Q) So what's the measured GI50 for this one? O=C(O)CCc1nc2cc3ccccc3cc2[nH]c1=O
A) > 100 µM (inactive)

###

The following compounds are listed with their measured GI50 values.
- Tested on: OVCAR-3
- EXPERIMENT DESCRIPTION: NCI tumour cell line growth inhibition, 48 h
The source made the active and inactive calls. Rule as the data show it: active = GI50 up to about 1.1 µM and inactive = higher.

Observe how each entry below is paired with its result.
> print(dat)
                                   compound  tested.system  measured.quantity                result
1  O=C(c1ccc(O)cc1O)C1C(c2ccc(O)cc2)OC(c2ccc(O)cc2)C1C(=O)c1ccc(O)cc1O (stereo not drawn)        OVCAR-3               GI50    18.7 µM (inactive)
2  O=C(c1ccccc1)[C@H]1Nc2ccc(Cl)cc2[C@H]2OCCC[C@@H]12        OVCAR-3               GI50    14.9 µM (inactive)
3  N=c1ccn2c(n1)OC1C(OP(=O)(O)O)C(CO)OC12 (stereo not drawn)        OVCAR-3               GI50  > 71.3 µM (inactive)
4  Cc1cc(N(CCC#N)CCC#N)ccc1/N=N/c1cccc(C(=O)O)c1        OVCAR-3               GI50      56 µM (inactive)

Q) Which GI50 is reported with OVCAR-3 for this entry: O=C(Nc1ccccc1)N(C1=NCC(CI)S1)c1ccc(F)c(F)c1 (stereo not drawn) ?
A) 28.3 µM (inactive)

Q) Which GI50 is reported with OVCAR-3 for this entry: c1ccc(-c2nnc(-c3ccccn3)c3c2C[C@@H]2C[C@@H]4Cc5c(-c6ccccn6)nnc(-c6ccccn6)c5[C@@H]4[C@H]32)nc1 ?
A) 85.9 µM (inactive)

Q) Which GI50 is reported with OVCAR-3 for this entry: Nc1ccc2c(c1)S(=O)(=O)c1cc(O)ccc1O2 ?
A) > 100 µM (inactive)

Q) Which GI50 is reported with OVCAR-3 for this entry: CCCCCC1=C2C(c3ccc(OC)cc3)=C(N)C(c3ccc(OC)cc3)=C3NC(=O)C(C=C1)C32 (stereo not drawn) ?
A) 57.1 µM (inactive)

Q) Which GI50 is reported with OVCAR-3 for this entry: Cn1c(=O)c2c(no[n+]2[O-])n(C)c1=O ?
A) > 100 µM (inactive)

Q) Which GI50 is reported with OVCAR-3 for this entry: CC(C)(C)n1c(=O)n(C(=O)C(Cl)(Cl)Cl)n(C(=O)C(Cl)(Cl)Cl)c1=O ?
A) > 100 µM (inactive)

Q) Which GI50 is reported with OVCAR-3 for this entry: C[N+]1(CCCC[N+]2(C)CCCCCCC2)CCCCCCC1 ?
A) > 100 µM (inactive)

Q) Which GI50 is reported with OVCAR-3 for this entry: Nc1nc(Cl)c2ncn(Cc3ccc(CCl)cc3)c2n1 ?
A) 2.16 µM (inactive)

Q) Which GI50 is reported with OVCAR-3 for this entry: O=S(=O)(NNc1ccccc1)c1ccccc1 ?
A) 11.3 µM (inactive)
